tgt: Cathepsin L (UniProt P07711 114-333)
Sequence (P07711 114-333 limits assumed): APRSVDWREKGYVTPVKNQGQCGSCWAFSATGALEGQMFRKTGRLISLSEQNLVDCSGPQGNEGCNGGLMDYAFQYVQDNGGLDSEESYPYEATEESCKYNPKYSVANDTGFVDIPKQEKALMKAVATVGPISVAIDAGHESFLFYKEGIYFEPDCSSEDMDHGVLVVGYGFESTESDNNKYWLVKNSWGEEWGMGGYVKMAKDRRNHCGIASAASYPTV
assay_remarks: fluorescence-based enzyme inhibition assay
Positions of bridges follow the written chain, without caps; N, C: chain ends. No end group written: not given here. alpha,alpha'‑meta‑xylylene = alpha,alpha'-meta-xylylene linker (from a,a'-dibromo-meta-xylene) bridging two cysteines via bis-thioether

| binder | result_units | Ki |
| --- | --- | --- |
| TWEEVCSLMCS (linker 6-10 via alpha,alpha'‑meta‑xylylene, single mutant) [TWEEVCSLMCS (SEQ ID NO:18)] | µM | 93.9 |
| TSEEVCSLMCS (linker 6-10 via alpha,alpha'‑meta‑xylylene) [TSEEVCSLMCS (SEQ ID NO:16)] | µM | 16.7 |
| WSEEVCSLMCS (linker 6-10 via alpha,alpha'‑meta‑xylylene, single mutant) [WSEEVCSLMCS (SEQ ID NO:17)] | µM | 76 |
| TSEEWCSLMCS (linker 6-10 via alpha,alpha'‑meta‑xylylene, single mutant) [TSEEWCSLMCS (SEQ ID NO:21)] | µM | 105 |
| TWEWVCSLMCS (linker 6-10 via alpha,alpha'‑meta‑xylylene, double mutant) [TWEWVCSLMCS (SEQ ID NO:23)] | µM | 33.8 |
| TSEWVCSLMCS (linker 6-10 via alpha,alpha'‑meta‑xylylene, single mutant) [TSEWVCSLMCS (SEQ ID NO:20)] | µM | 57.1 |
| WWEWVCSLMCS (linker 6-10 via alpha,alpha'‑meta‑xylylene, triple mutant) [WWEWVCSLMCS (SEQ ID NO:25)] | µM | 16.1 |
| WWEWWCSLMCS (linker 6-10 via alpha,alpha'‑meta‑xylylene, quadruple mutant; also called compound (IVa)) [WWEWWCSLMCS (SEQ ID NO:26)] | µM | 28.1 |
